Data credit: patent US6669925B1

- Target Or Test System: σ2 receptors (Rattus norvegicus)
- Construct: from tissue; host or cells: rat liver homogenate (per the earlier reading's assay description)
- Measurement Description: In vitro binding to σ2 receptors: inhibition of [3H]DTG binding to rat liver homogenates
- Recorded Conditions: Table II; footnote b not given; read-out: σ2 (binding to σ2 receptors)
Readout Name: Ki (nM)
Lab book: enter the figure in nM, no units written.

INPUT: Give its Ki value. Item: COc1ccc(C)cc1NC(=O)OC1CC2CCCC(C1)N2CCc1ccc(I)cc1 (centres unmarked)
OUTPUT: 141

* * *

Each item that follows carries a reported Ki.
- Target Or Test System: σ2 receptors (Rattus norvegicus, UniProt Q5U3Y7)
- Construct: from tissue; host or cells: rat liver homogenate (per the earlier reading's assay description)
- Sequence (Q5U3Y7 1-176): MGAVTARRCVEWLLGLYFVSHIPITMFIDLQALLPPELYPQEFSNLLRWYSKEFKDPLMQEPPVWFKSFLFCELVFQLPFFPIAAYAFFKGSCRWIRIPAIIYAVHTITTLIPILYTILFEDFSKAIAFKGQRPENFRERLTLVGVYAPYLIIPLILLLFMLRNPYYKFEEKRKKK
- Measurement Description: In vitro binding to σ2 receptors: inhibition of [3H]DTG binding to rat liver homogenates
Expressed in nM, but write only the number.

{"Compound": "COc1ccc(C)cc1NC(=O)OC1CC2CCCC(C1)N2CCCc1ccccc1 (stereo not shown)", "Ki / nM": 1.97}

INPUT: Which Ki is listed for COc1ccc(C)cc1NC(=O)OC1CC2CCCC(C1)N2CCCc1ccc(N)cc1 (stereo not shown) ?
OUTPUT: 10.5

INPUT: Tell me the measured Ki of COc1ccc(C)cc1NC(=O)OC1CC2CCCC(C1)N2CCc1ccc(N)cc1 (stereo not shown) , please.
OUTPUT: 7.78

INPUT: For COc1ccc(C)cc1NC(=O)OC1CC2CCCC(C1)N2C/C=C/c1ccc(N)cc1 (stereo not shown) , what is its reported Ki?
OUTPUT: 3.6

INPUT: May I ask what Ki has been recorded for COc1ccc(C)cc1NC(=O)OC1CC2CCCC(C1)N2CCCCCCCc1ccccc1 (stereo not shown) ?
OUTPUT: 7.6

INPUT: Suppose we examine the compound COc1ccc(C)cc1NC(=O)OC1CC2CCCC(C1)N2CCCCc1ccccc1 (stereo not shown) ; what Ki value has been reported?
OUTPUT: 2.92

INPUT: Query: Ki; subject: COc1ccc(C)cc1NC(=O)OC1CC2CCCC(C1)N2CCc1ccccc1 (stereo not shown)
OUTPUT: 1.2

INPUT: Please report the recorded Ki for COc1ccc(C)cc1NC(=O)OC1CC2CCCC(C1)N2Cc1ccccc1 (stereo not shown) [—, reference compound] .
OUTPUT: 3.06

INPUT: So what's the measured Ki for this one? COc1ccc(C)cc1NC(=O)OC1CC2CCCC(C1)N2CCCCCCc1ccccc1 (stereo not shown)
OUTPUT: 7.61

INPUT: Given the entry COc1ccc(C)cc1NC(=O)OC1CC2CCCC(C1)N2CCCCCc1ccccc1 (stereo not shown) , report its measured Ki.
OUTPUT: 1.82
